Tested on: biotinyl-Met-oxazolone
Protocol text: self-aminoacylation, catalytic enhancement (BMO) (fold over background); higher = more active; k-Seq, kA / k0A0; sequences stand for … in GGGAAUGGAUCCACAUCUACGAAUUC…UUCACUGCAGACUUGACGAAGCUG
Fewer inactive variants are shown than the library holds.
Kindly supply the reported self-aminoacylation values for the records listed here.
Numbers only.

Some sequences with recorded self-aminoacylation:
INSERT INTO assay_data (polymer_sequence, tested_system, experimental_value) VALUES
  ('AAGUUUACUAGUAGUCGCAAG [Fam3.1 aminoacylation ribozyme variant]', 'biotinyl-Met-oxazolone', 1.53),
  ('AUUCACGUAGGUCAUCGGGUG [Fam2.2 aminoacylation ribozyme variant]', 'biotinyl-Met-oxazolone', 6.62),
  ('CUACUCCAGACAAUCGGUCUG [Fam1A.1 aminoacylation ribozyme variant]', 'biotinyl-Met-oxazolone', 1.29),
  ('CCACACUUCAAGCAAUCCGUA [Fam1B.1 aminoacylation ribozyme variant]', 'biotinyl-Met-oxazolone', 0.668),
  ('AUUCACGAAGGUCAUCGGGUG [Fam2.2 aminoacylation ribozyme variant]', 'biotinyl-Met-oxazolone', 10.5),
  ('CCACACUGCCAGCAAUCGGUC [Fam1B.1 aminoacylation ribozyme variant]', 'biotinyl-Met-oxazolone', 1.36),
  ('AGGUUCGCUAAUAGUCGCAAG [Fam3.1 aminoacylation ribozyme variant]', 'biotinyl-Met-oxazolone', 2.81),
  ('AUUACCUUGGUCACCGAGUGA [Fam2.1 aminoacylation ribozyme variant]', 'biotinyl-Met-oxazolone', 6.15);

Hey, can you go through the list below and give me self-aminoacylation for every item?
1. CUUCUUCAAACAAUAGGUCUG [Fam1A.1 aminoacylation ribozyme variant]
2. AUUCACCAAGAUCAUCGGGUG [Fam2.2 aminoacylation ribozyme variant]
3. AAGUUUGCUUAGAGUCGCAAG [Fam3.1 aminoacylation ribozyme variant]
4. CCACACUUCAAGCCAUAGGUC [Fam1B.1 aminoacylation ribozyme variant]
5. AUUACACCGGUCAUCGAGUGA [Fam2.1 aminoacylation ribozyme variant]

Output:
[0.817, 4.4, 0.757, 0.622, 5.76]
